- protocol.description: Clearance in Sprague-Dawley rat at 1 mg/kg, iv administered as single dose by LC/MS/MS analysis
- Type: ADME, organism-based
- Set-up: dose 1 mg/kg, route intravenous
- applied.conditions: in vivo
measurement.name: clearance (mL/min/kg)

P. COc1cc(N2CCN(C3CCN(c4ccc(F)c5c(OC)cc(C(F)(F)F)nc45)CC3)CC2)c2ncccc2c1
Q. COc1cc(N2CCN(C3CCN(c4cccc5cccnc45)CC3)CC2)c2ncccc2c1
Kindly identify which of P and Q has the larger recorded clearance value. Record your answer as the label of the chosen record.
Q
(Q: 38.7 mL/min/kg, P: 9 mL/min/kg)
